assay: Novel Modifiers of Survival Motor Neuron (SMN) Protein: Gene Identification via Genome-wide siRNA Screen; conditions: HEK293T SMN2-luciferase reporter, siRNA knockdown, 72 h; actives lie on both sides;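 also: luminescence tracks full-length SMN protein made from the SMN2 reporter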
In all, about 31,000 sequences went through this assay and about 1,400 (4.5%) were called active.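 The calls were made as follows: active = median seed-adjusted z-score above 1 or below -1; inactive = the rest.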 Only a selection was taken, and actives are over-represented in it overall.
Respond with a class label; see active, inactive

IN: Assay result, entry GGAGAAUGGUUCGACUGUUTT against CKAP5 — outcome?
OUT: active

IN: Assay result, entry CCCUGCUCCUCACUCAUUUTT against KRTAP5-5 — outcome?
OUT: active

IN: Assay result, entry GCAAGACCACGCUCCUUUATT against ARL11 — outcome?
OUT: active

IN: Assay result, entry CCAGAUAUGGUAUCCCAAUTT against ZNF227 — outcome?
OUT: inactive

IN: Assay result, entry CGACUUCUCAGAAGGCAGATT against GATA4 — outcome?
OUT: inactive

IN: Assay result, entry UCCCAGUUCUGAUACAUAUTT against SAE1 — outcome?
OUT: inactive

IN: Assay result, entry CGAGAUAACUACUUUCGGATT against RALB — outcome?
OUT: inactive

IN: Assay result, entry CCAAGUUAUUGCUAUCAGATT against PPCS — outcome?
OUT: inactive

IN: Assay result, entry CGCUUAACAUUGGAGUUCATT against ATG7 — outcome?
OUT: inactive

IN: Assay result, entry AGUUCAUCGAUGACAUGGATT against COL6A2 — outcome?
OUT: inactive

IN: Assay result, entry GAUUCUUCCCGGCAUCAUATT against GUCY1A3 — outcome?
OUT: inactive

IN: Assay result, entry CCAAAGAACUUAAGGAUUUTT against NEURL2 — outcome?
OUT: active

* * *

experiment: Novel Modifiers of Survival Motor Neuron (SMN) Protein: Gene Identification via Genome-wide siRNA Screen; conditions: HEK293T SMN2-luciferase reporter, siRNA knockdown, 72 h; actives lie on both sides;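 also: luminescence tracks full-length SMN protein made from the SMN2 reporter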
Hit rate of the full screen: of about 31,000 sequences, about 1,400 (4.5%) were called active. Many of the other results were omitted from the sample, so actives are more common in it than they were.
Parameter Measured: median seed-adjusted z-score
Form rule: numeric answer, no unit written next to it.

The examples below pair each entry with its known result.
| Seq Text | median seed-adjusted z-score |
| --- | --- |
| GAUCCUAAUAUGAAGUUAUTT against FUBP1 | -1.52 |
| GGCUUAAACUUAGAGUCAATT against MYLIP | 0.652 |
| UAAGAACACCGUUACCCAATT against NLGN4X | -0.1 |
| CCAUUGUUCCAGACUUCUUTT against CMBL | 0 |
| GGUUGUUGCUGAUAGAGAATT against DPH5 | 0 |

Measured median seed-adjusted z-score, GCACAUGUUUGGAGGAUUUTT against ZNRF2 : 0

Measured median seed-adjusted z-score, GCACCUUCGUCUACAAGGATT against PDE6A : 1.25

Measured median seed-adjusted z-score, AGAGCUCACUCGUCCCAAUTT against CXCL16 : 0.201

Measured median seed-adjusted z-score, GCACUAAUCUGCAAACUGUTT against SPTB : 0.153

Measured median seed-adjusted z-score, CCUUUAACCAGUCUGCACATT against ZNF85 : -1.01

Measured median seed-adjusted z-score, CCAUCACGUUCAUUACCUUTT against GAN : -1.07

Measured median seed-adjusted z-score, CCAAGAAGAUCAGCACCUUTT against GPR26 : -1.33
